measured_target: T1, TX1BP3, O14907
T1 sequence (O14907 10-122, limits assumed, looked up): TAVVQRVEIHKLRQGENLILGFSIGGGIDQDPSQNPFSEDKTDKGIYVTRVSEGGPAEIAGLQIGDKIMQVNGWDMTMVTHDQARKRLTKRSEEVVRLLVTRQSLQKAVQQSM
assay_remarks: holdup assay
Set-up: key: below the threshold = too weak to quantify, mostly under pKd 3.1 to 4
applied_conditions: plain residues with an end cap or a label only (N-terminal biotin on a linker: ahx)
readout_label: pKd
I'd appreciate a reply containing only the number, no unit.

Recorded pKd (binder HTHSYIETHV [CNKSR2, Q8WXI2] ): 5.47

In plain terms, QPRTWLQSPV [RTKN, Q9BST9] has a documented pKd of 6.05

Lab note: QDEKVKESYV [ABCA1, O95477] gave pKd of 4.74

For TQKFRASTAL [FRMPD1, Q5SYB0] the binder record lists pKd as 4.17
